experimental system: T1, Nat1 (LTIITLE) (also: TFA salt)
T1 peptide: LTIITLE
assay explanation: cell-based or functional assay
Non-standard residues stand in square brackets, D forms with d. No end group written: not given here.
parameter measured: IC50, Thiofiavin T aggregation assay (nM)

1: [dY][dQ][dW][dQ][dY][dQ][dR] [yqwqyqr]
2: IRARRYR
3: [dK][dL][dK][dK][dL][dH] [klkklh]
4: LTRILTH
Q: Can you order these entries from above by IC50, Thiofiavin T aggregation assay? Start with the largest number and work down. Answer format: the labels, ordered as requested.
A: 4, 2, 1, 3

a: WYIRTYH
b: [dF][dW][dR][dW][dH][dA][dA] [fwrwhaa]
Q: // select label with min value of measured IC50, Thiofiavin T aggregation assay from [ a , b ] Kindly give the label for the entry you pick.
A: a
(a: 287 nM, b: 458 nM)

I: WYIRLWH
II: WTRIYYH
Q: For the two items I and II , which reports the higher IC50, Thiofiavin T aggregation assay value? Kindly give the label for the entry you pick.
A: II
(II: 420 nM, I: 288 nM)
